# ASSAYED_TARGET: NMDA receptor subunits 1A/2C (Rattus norvegicus, UniProt P35439+Q00961)
# Construct: expressed in transfected cells; host or cells: Xenopus laevis oocytes (cRNA injection; clones from Dr. P. H. Seeburg)
# Sequence (Q00961 20-1237, other chains not shown): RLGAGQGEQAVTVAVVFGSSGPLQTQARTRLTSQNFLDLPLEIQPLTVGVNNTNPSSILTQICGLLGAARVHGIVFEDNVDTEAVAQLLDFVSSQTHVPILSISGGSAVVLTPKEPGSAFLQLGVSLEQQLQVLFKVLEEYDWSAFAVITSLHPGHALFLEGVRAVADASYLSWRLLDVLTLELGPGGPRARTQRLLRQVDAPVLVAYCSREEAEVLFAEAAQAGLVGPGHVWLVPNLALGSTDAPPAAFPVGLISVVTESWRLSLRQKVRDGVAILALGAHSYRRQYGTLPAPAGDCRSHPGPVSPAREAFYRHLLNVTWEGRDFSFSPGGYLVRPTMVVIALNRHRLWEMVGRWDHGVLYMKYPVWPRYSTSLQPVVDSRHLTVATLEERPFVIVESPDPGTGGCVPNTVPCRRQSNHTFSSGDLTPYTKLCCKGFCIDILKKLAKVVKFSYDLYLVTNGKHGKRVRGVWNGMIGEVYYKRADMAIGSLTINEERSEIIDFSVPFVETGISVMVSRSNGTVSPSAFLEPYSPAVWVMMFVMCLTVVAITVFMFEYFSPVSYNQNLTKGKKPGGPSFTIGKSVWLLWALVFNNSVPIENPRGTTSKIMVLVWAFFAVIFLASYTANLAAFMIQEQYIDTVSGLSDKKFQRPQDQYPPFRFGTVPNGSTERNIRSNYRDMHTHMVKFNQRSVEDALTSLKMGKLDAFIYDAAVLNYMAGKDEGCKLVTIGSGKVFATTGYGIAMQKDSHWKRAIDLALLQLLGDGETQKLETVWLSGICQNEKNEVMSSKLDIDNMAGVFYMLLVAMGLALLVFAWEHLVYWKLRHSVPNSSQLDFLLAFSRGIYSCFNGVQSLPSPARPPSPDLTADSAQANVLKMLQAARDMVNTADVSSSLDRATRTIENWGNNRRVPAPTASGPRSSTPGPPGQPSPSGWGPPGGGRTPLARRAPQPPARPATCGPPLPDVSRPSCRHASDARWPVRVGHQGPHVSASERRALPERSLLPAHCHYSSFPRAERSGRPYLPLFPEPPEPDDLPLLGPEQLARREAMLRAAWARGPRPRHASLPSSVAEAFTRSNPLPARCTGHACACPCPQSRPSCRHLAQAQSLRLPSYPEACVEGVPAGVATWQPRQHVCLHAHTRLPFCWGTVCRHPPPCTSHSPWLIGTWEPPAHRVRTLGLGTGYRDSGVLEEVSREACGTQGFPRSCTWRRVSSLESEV
# METHOD_SUMMARY: Electrophysiological assay at NMDA receptor subunits expressed in Xenopus oocytes, 1A/2C
# Format: cell-based
# ASSAY_CONTEXT: Xenopus oocytes; glutamate 100 μm and glycine 1-100 μm; read-out: Subunits IC50, 1A/2C
pIC50: −log10 of the molar value. Where a name gives a salt, the structure may show the parent alone.
MEASURE: pIC50

[
  {
    "MOLECULE": "COc1cccc(OCCN2CCC(Cc3ccccc3)CC2)c1",
    "EXPERIMENTAL_VALUE": "< 4.00"
  },
  {
    "MOLECULE": "Fc1ccc(CC2CCN(CCOc3ccc(Cl)cc3)CC2)cc1 [Ex. 34, hydrochloride]",
    "EXPERIMENTAL_VALUE": "< 4.00"
  },
  {
    "MOLECULE": "Br.Br.Nc1ccc(OCCN2CCC(Cc3ccccc3)CC2)cc1 [Ex. 13, dihydrobromide]",
    "EXPERIMENTAL_VALUE": "< 4.00"
  },
  {
    "MOLECULE": "Cl.Oc1ccc(OCCN2CCC(Cc3c(F)cccc3F)CC2)cc1 [Ex. 146, hydrochloride]",
    "EXPERIMENTAL_VALUE": 3.80
  },
  {
    "MOLECULE": "OC1(Cc2ccccc2)CCN(CCc2ccccc2)CC1 [Ex. 90, hydrochloride]",
    "EXPERIMENTAL_VALUE": "< 4.00"
  }
]

I have 4 molecules here; please give me pIC50 for each one.
1. Cc1ccc(CC2(O)CCN(CCOc3ccc(O)c(C)c3)CC2)cc1 [Ex. 155, hydrochloride]
2. Oc1ccccc1OCCN1CCC(Cc2ccc(F)cc2)CC1 [Ex. 158, hydrochloride]
3. OC(CCc1ccccc1)CN1CCC(Cc2ccccc2)CC1 (stereo not drawn)
4. Oc1cccc(OCCN2CCC(Cc3ccc(F)cc3)CC2)c1 [Ex. 159, hydrochloride]

**Result**
["< 3.52", 3.72, "< 4.00", 3.85]

###

# ASSAYED_TARGET: NMDA receptor subunits 1A/2C (Rattus norvegicus, UniProt P35439+Q00961)
# Construct: expressed in transfected cells; host or cells: Xenopus laevis oocytes (cRNA injection; clones from Dr. P. H. Seeburg)
# METHOD_SUMMARY: Electrophysiological assay at NMDA receptor subunits expressed in Xenopus oocytes, 1A/2C
# Assay type: cell-based
# ASSAY_CONTEXT: Xenopus oocytes; glutamate 100 μm and glycine 1-100 μm; read-out: Subunits IC50, 1A/2C
Counter-ions that a name gives are not always drawn.
Exercise: state measured IC50 for each of the compounds provided.
Numbers only, in µM.

[
  {
    "COMPOUND": "Cc1ccc(CC2CCN(CCOc3ccc(F)cc3)CC2)c(F)c1 [Ex. 133, hydrochloride]",
    "EXPERIMENTAL_VALUE": 150
  }
]

I have 2 compounds here; please give me IC50 for each one.
1. Fc1cccc(OCCCN2CCC(Cc3ccc(Cl)cc3)CC2)c1 [Ex. 31, hydrobromide]
2. Cc1ccc(CC2CCN(CCOc3ccc(O)c(C)c3)CC2)c(F)c1 [Ex. 147, hydrochloride]

**Result**
60
210
